# EC50 per entry
tested on: breast cancer cell line MX-1; experiment: MX-1 cell line proliferation assay, Method A; type: cell-based; details: MX-1 cells, 96-well, 72 hours, Cell Titer Glo; read-out: Cellular proliferation: EC50 Method A
Give just the numeric value; nM need not be written.

COc1ccc(S(=O)(=O)Nc2cccc(Oc3ccc(S(C)(=O)=O)cc3-c3cn(C)c(=O)c4[nH]ccc34)c2)cc1OC [Example 53]    144

Moving on to another compound below.
Q. I am curious: what EC50 value has been reported for Cn1cc(-c2cc(S(C)(=O)=O)ccc2NC2CCN(S(=O)(=O)/C=C/c3ccccc3)CC2)c2cc[nH]c2c1=O [Example 102] ?
A. 67.3

Sourced from patent US9957263B2
